Data credit: the supplement of paper PMC12667976

B1: library; numbered along this chain (parent)
chain: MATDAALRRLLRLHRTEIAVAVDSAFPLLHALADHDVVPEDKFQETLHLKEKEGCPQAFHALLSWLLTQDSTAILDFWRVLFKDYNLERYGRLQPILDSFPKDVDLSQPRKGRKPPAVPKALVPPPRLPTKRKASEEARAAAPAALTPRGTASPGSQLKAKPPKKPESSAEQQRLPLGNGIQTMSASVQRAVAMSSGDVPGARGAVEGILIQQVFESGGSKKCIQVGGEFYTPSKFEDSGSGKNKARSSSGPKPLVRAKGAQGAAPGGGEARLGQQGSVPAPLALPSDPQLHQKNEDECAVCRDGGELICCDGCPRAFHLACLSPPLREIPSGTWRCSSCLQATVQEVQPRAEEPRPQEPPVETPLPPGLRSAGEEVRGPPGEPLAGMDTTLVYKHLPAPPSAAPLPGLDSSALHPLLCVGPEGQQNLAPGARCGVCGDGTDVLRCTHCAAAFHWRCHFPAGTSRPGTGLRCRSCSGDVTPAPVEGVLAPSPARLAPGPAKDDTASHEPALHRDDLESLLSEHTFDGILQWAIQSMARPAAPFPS

Variants of: B1
Test: AIRE transcriptional activation functional score (insulin promoter-GFP; nonsense median 0, synonymous median 1) (normalised score); higher = higher AIRE activity (more reporter activation)
Conditions: with insulin promoter-GFP reporter in HEK293
reported-property: AIRE transcriptional activation functional score

G218S | 0.817
G228K | 0.799
P360Q | 0.786
L175C | 0.818
